system: Mus musculus; assay: Neurotoxicity in albino mouse assessed as minimal motor impairment at 100 mg/kg, ip after 0.5 hrs by rotorod test; type: toxicity, organism-based; set-up: dose 100 mg/kg, route intraperitoneal; conditions: in vivo
metric: Activity

{"molecule": "CCC(CO)NCc1cccc2c(=O)c3ccc(OC)cc3oc12 (racemic)", "observed-value": "Toxic"}
{"molecule": "COc1ccc2c(=O)c3cccc(CNCC(C)O)c3oc2c1 (racemic)", "observed-value": "Toxic"}
{"molecule": "CC[C@H](CO)NCc1cccc2c(=O)c3ccc(OC)cc3oc12", "observed-value": "Non-toxic"}
{"molecule": "CC(CO)NCc1ccc2oc3ccc(Cl)cc3c(=O)c2c1 (racemic)", "observed-value": "Non-toxic"}
{"molecule": "CCC(CO)NCc1ccc2oc3cc(OC)ccc3c(=O)c2c1 (racemic)", "observed-value": "Non-toxic"}
{"molecule": "C[C@H](CO)NCc1ccc2oc3ccc(Cl)cc3c(=O)c2c1", "observed-value": "Non-toxic"}
{"molecule": "COc1ccc2c(=O)c3cccc(CNC(C)(C)CO)c3oc2c1", "observed-value": "Toxic"}
{"molecule": "C[C@@H](CO)NCc1ccc2oc3ccc(Cl)cc3c(=O)c2c1", "observed-value": "Non-toxic"}

Numbers sourced from ChEMBL document CHEMBL2331168.
